Taken from PubChem BioAssay AID1159580.

# experimentSummary: chemical genetic growth profiling, strain panel (AID 1159580);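 note: tested at 20 µM; growth read once vehicle control cultures reached saturation at 30 °C; lower values mean less growth of the strain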
# assayConditions: S. cerevisiae deletion strains, growth OD, locus YGL227W, strain vid30
The campaign covered roughly 5,500 compounds. About 2,000 (36%) were called active. Roughly 18% stayed inconclusive and do not appear here. Cut-off read from the data, not from the text of the source: active = normalized growth mostly below about 0.91 (no sharp cut-off); inconclusive = no clear call, values can overlap the other calls; inactive = mostly above about 0.92. Some of the results follow.
Reply using exactly one outcome from active, inactive

| compound | group |
| --- | --- |
| C[C@]12CCC(=O)C=C1CCC1C2CC[C@@]2(C)C1CC[C@@H]2O (some centres undefined) | inactive |
| CC(C[N+](C)(C)C)OC(N)=O (centres undefined) | inactive |
| CN(C)C(=S)SSC(=S)N(C)C | active |
| CCC(=O)O[C@H]1CCC2C3CCC4=CC(=O)CC[C@]4(C)C3CC[C@@]21C (some centres undefined) | inactive |
| O=C(O)c1cc2ccccc2c(Cc2c(O)c(C(=O)O)cc3ccccc23)c1O | inactive |
| O=C(O)c1c2ccccc2cc2ccccc12 | inactive |

Could you please tell me the result logged for CC(=O)OCC[N+](C)(C)C in this assay? inactive

Per the records of this test, what outcome belongs to COc1cc(NC(C)CCCN)c2ncccc2c1 (centres undefined) ? inactive

What did this assay record as the result for O=C(O)c1cc2ccccc2[nH]1 ? inactive
